biological target: D(2) dopamine receptor (Rattus norvegicus); assay: Binding affinity against D2 receptor in rat corpus striatum using [3H]sulpiride as the radioligand; assay type: tissue-based
Ki reference

Some solved cases for reference:
molecule	systemUnderTest	readoutType	valueReported
CCN1C2CCC1c1c([nH]c3ccccc13)C2 (configuration not stated)	D(2) dopamine receptor (Rattus norvegicus)	Ki	> 10 µM
c1ccc(-n2c3c(c4ccccc42)C2CCC(C3)N2)cc1 (configuration not stated)	D(2) dopamine receptor (Rattus norvegicus)	Ki	10 µM
O=C1CC2(CCCC2)CC(=O)N1CCCCN1C2CCC1c1c([nH]c3ccccc13)C2 (configuration not stated)	D(2) dopamine receptor (Rattus norvegicus)	Ki	3 µM
O=C(CCCN1C2CCC1c1c([nH]c3ccccc13)C2)c1ccc(F)cc1 (configuration not stated)	D(2) dopamine receptor (Rattus norvegicus)	Ki	0.27 µM
CCCN1C2CCC1c1c([nH]c3ccccc13)C2 (configuration not stated)	D(2) dopamine receptor (Rattus norvegicus)	Ki	11.2 µM
c1coc(CCCCN2C3CCC2c2c([nH]c4ccccc24)C3)c1 (stereo in doubt; 40)	D(2) dopamine receptor (Rattus norvegicus)	Ki	1.27 µM

Can you share its Ki? I mean this molecule: c1coc(CCCCN2C3CCC2c2c([nH]c4ccccc24)C3)c1 (racemic)
1.27 µM

Query c1csc(CCCCN2C3CCC2c2c([nH]c4ccccc24)C3)c1 (configuration not stated) next
0.62 µM

Query Fc1ccc2[nH]c3c(c2c1)C1CCC(C3)N1Cc1ccccc1 (configuration not stated) next
2.42 µM

Query c1ccc2c3c([nH]c2c1)CC1CCC3N1CCCCc1nccs1 (configuration not stated) next
2.23 µM

Query c1ccc(CCCCN2C3CCC2c2c(n(-c4ccccc4)c4ccccc24)C3)cc1 (configuration not stated) next
1.57 µM

Query c1ccc(CCCCN2C3CCC2c2c([nH]c4ccccc24)C3)cc1 (configuration not stated) next
0.733 µM

Query CN(CCN1C2CCC1c1c([nH]c3ccccc13)C2)C(=O)Cc1ccc(Cl)c(Cl)c1 (configuration not stated) next
3.79 µM

Query c1coc(CCCCN2C3CCC2c2c([nH]c4ccccc24)C3)c1 (single isomer, unassigned; (+)) next
0.33 µM

Query c1ccc2c(c1)CN(CCN1C3CCC1c1c([nH]c4ccccc14)C3)C2 (configuration not stated) next
2 µM

Query c1coc(CCCCN2C3CCC2c2c([nH]c4ccccc24)C3)c1 (single isomer, unassigned; (-)) next
3.15 µM

Query CC/C=C/N1C2CCC1c1c([nH]c3ccccc13)C2 (configuration not stated) next
0.71 µM

----------
target: D(2) dopamine receptor (Rattus norvegicus, UniProt P61169); test: Compound was tested for binding affinity against D2 receptor in rat corpus striatum, using [3H]sulpiride as the radioligand; format: tissue-based
Sequence (P61169 whole entry): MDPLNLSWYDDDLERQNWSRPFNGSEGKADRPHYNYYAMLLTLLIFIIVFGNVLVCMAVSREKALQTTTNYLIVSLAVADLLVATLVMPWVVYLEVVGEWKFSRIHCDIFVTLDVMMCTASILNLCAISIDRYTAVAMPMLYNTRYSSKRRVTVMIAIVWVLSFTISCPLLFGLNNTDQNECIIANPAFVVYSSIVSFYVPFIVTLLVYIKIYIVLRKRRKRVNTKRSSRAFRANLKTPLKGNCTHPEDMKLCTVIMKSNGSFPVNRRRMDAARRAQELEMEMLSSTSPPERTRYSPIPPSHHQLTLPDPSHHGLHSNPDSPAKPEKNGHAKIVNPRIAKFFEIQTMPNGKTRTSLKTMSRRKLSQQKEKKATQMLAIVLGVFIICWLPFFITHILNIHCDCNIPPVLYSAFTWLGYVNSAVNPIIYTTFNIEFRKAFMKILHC
readoutType: Ki

Can you share its Ki? I mean this compound: c1ccc2c3c([nH]c2c1)CC1CCC3N1 (stereo unspecified)
> 100 µM
